# measurementTarget: PfA-M1 (P. falciparum alanyl aminopeptidase, M1 family aminopeptidase) (Plasmodium falciparum, UniProt O96935)
# Construct: gene M1AAP; residues 192–1085, N-terminal hexahistidine tag, recombinant from E. coli
# Sequence (O96935 192-1085): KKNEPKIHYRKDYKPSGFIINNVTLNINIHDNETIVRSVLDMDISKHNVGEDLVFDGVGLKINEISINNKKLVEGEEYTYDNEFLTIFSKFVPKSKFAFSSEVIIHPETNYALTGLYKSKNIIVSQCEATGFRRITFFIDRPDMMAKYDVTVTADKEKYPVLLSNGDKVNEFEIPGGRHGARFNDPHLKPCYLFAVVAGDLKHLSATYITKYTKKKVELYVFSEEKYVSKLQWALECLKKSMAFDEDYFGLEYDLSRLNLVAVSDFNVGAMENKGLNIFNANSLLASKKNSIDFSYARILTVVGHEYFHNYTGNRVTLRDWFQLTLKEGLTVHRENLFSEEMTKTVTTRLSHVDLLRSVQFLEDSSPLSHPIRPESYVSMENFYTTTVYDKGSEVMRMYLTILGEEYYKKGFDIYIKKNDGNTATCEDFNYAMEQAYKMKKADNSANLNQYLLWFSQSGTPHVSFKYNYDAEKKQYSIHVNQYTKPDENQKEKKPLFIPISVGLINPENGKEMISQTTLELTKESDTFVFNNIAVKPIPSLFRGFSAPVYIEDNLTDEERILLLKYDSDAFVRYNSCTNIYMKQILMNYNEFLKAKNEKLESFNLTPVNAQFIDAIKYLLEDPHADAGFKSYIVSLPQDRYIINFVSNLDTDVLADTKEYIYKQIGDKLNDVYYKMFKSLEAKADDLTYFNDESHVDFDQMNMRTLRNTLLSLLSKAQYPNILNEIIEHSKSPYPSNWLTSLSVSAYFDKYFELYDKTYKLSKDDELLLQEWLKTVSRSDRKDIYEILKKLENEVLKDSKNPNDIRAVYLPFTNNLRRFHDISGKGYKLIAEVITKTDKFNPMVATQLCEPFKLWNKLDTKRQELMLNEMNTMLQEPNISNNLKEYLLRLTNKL
# protocolNotes: Ala-pNA hydrolysis at […] nm, Ki by Dixon plots
# Type: biochemical
readoutLabel: Ki

// CC(C)C[C@H](NC(=O)[C@@H](O)[C@H](N)Cc1ccccc1)C(=O)O : Ki value = 100 nM

Sourced from paper PMC5609037
